Taken from patent US20210206841A1.

# Target Of Assay: T1, native IHFNTHI (integration host factor of nontypeable Haemophilus influenzae) (nontypeable Haemophilus influenzae …, UniProt P43723 1-96; P43724 1-94)
# T1 construct: also called NTHI IHF
# T1 sequence 1: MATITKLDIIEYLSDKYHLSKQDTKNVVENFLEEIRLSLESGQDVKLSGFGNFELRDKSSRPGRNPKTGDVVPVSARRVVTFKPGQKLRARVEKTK
# T1 sequence 2: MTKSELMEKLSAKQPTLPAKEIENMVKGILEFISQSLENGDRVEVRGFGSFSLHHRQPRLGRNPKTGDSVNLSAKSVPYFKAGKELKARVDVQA
# Assay Overview: SPR Biacore 3000, HuMab immobilized, IHFNTHI as analyte
Endpoint: koff (s⁻¹)
Field format: number, assumed s⁻¹, no unit text.

{"Binder": "humanized anti-tip monoclonal antibody, heavy chain SEQ ID NO: 1 and light chain SEQ ID NO: 9 (antibody, V domains shown, also called H10210 (1F8.F1 Humanized HC1) + L10212 (1F8.F1 Humanized LC3)) VH: EVKLVESGGGLVQPGGSLRLSCAASGFTFRTYAMSWVRQAPGKGLEWVATIGSDRRHTYYPDSVKGRFTISRDNAKNTLYLQMNSLRAEDTAVYYCVGPYDGYYGEFDYWGQGTLVTVSS VL: DVVMTQSPDSLAVSLGERATINCKSSQSLLDSDGKTFLNWLQQKPGQPPKRLIYLVSKLDSGVPDRFSGSGSGTDFTLTISSLQAEDVAVYYCWQGTHFPYTFGQGTKLEIKR", "koff / s⁻¹": 0.00037}
{"Binder": "humanized anti-tip monoclonal antibody, heavy chain SEQ ID NO: 1 and light chain SEQ ID NO: 8 (antibody, V domains shown, also called H10210 (1F8.F1 Humanized HC1) + L10211 (1F8.F1 Humanized LC2)) VH: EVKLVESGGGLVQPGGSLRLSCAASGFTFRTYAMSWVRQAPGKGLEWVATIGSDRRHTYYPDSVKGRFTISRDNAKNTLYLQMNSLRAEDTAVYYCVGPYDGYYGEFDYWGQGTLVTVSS VL: DVVMTQSPLSLPVTLGQPASISCRSSQSLLDSDGKTFLNWLQQRPGQSPRRLIYLVSKRDSGVPDRFSGSGSGTDFTLKISRVEAEDVGVYYCWQGTHFPYTFGQGTKLEIKR", "koff / s⁻¹": 0.00032}
{"Binder": "humanized anti-tip monoclonal antibody, heavy chain SEQ ID NO: 3 and light chain SEQ ID NO: 9 (antibody, V domains shown, also called H10212 (1F8.F1 Humanized HC3) + L10212 (1F8.F1 Humanized LC3)) VH: EVKLVQSGAEVKKPGASVKVSCKASGFTFRTYAMSWVRQAPGQRLEWVATIGSDRRHTYYPDKFQGRVTITRDNAKNTLYMELSSLRSEDTAVYYCVGPYDGYYGEFDYWGQGTLVTVSS VL: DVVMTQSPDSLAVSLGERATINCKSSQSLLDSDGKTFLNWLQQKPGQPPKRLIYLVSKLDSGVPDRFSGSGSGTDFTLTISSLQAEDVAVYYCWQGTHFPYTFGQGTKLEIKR", "koff / s⁻¹": 0.0027}

Let's switch to this binder now.
koff for humanized anti-tip monoclonal antibody, heavy chain SEQ ID NO: 1 and light chain SEQ ID NO: 7 (antibody, V domains shown, also called HuTipMab; TP-21949) VH: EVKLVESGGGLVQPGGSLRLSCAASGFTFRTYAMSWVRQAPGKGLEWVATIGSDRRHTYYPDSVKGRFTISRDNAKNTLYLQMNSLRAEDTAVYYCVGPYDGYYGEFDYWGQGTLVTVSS VL: DVVMTQSPLSLPVTLGQPASISCRSSQSLLDSDGKTFLNWLQQRPGQSPRRLIYLVSKLDSGVPDRFSGSGSGTDFTLKISRVEAEDVGVYYCWQGTHFPYTFGQGTKLEIKR is 1.4e-05
